Test: Absorbance at photostationary state (PSS) under simulated sunlight or 365 nm light
Assay type: physicochemical
Details: simulated sunlight (QSUN solar simulator), no UV blocking film; 2.0×10^−5 M in triglyme
measured parameter: Absorbance at PSS, full
Returns: the value as a bare number; no unit string appended.

Consider the reported Absorbance at PSS, full for these compounds:
COc1ccc(-c2sc(-c3ccc(C#N)cc3)cc2C2=C(c3cc(-c4ccc(C#N)cc4)sc3-c3ccc(OC)cc3)C(F)(F)C(F)(F)C2(F)F)cc1
0.161
FC1(F)C(c2cc(-c3ccc(Cl)s3)sc2-c2ccc(Cl)s2)=C(c2cc(-c3ccc(Cl)s3)sc2-c2ccc(Cl)s2)C(F)(F)C1(F)F
0.251
CC(C)(C)c1ccc(-c2cc(C3=C(c4cc(-c5ccc(C(C)(C)C)s5)sc4-c4ccc(O[Si](O[Si](C)(C)C)(O[Si](C)(C)C)O[Si](C)(C)C)cc4)C(F)(F)C(F)(F)C3(F)F)c(-c3ccc(O[Si](O[Si](C)(C)C)(O[Si](C)(C)C)O[Si](C)(C)C)cc3)s2)s1
0.223
N#Cc1ccc(-c2ccc(-c3cc(C4=C(c5cc(-c6ccc(-c7ccc(C#N)s7)s6)sc5-c5cccs5)C(F)(F)C(F)(F)C4(F)F)c(-c4cccs4)s3)s2)s1
0.375
FC1(F)C(c2cc(-c3ccccc3)sc2-c2ccccc2)=C(c2cc(-c3ccc(Cl)cc3)sc2-c2ccccc2)C(F)(F)C1(F)F
0.038

q: Data request, read-out Absorbance at PSS, full, for COc1ccc(-c2sc(-c3ccc(/C=C/C=C/c4ccccc4)cc3)cc2C2=C(c3cc(-c4ccc(/C=C/C=C/c5ccccc5)cc4)sc3-c3ccc(OC)cc3)C(F)(F)C(F)(F)C2(F)F)cc1
a: 0.137

q: Data request, read-out Absorbance at PSS, full, for COc1ccc(-c2cc(C3=C(c4cc(-c5ccc(OC)cc5)sc4-c4ccc(OC)cc4)C(F)(F)C(F)(F)C3(F)F)c(-c3ccc(OC)cc3)s2)cc1
a: 0.106

q: Data request, read-out Absorbance at PSS, full, for CCOc1ccc(-c2cc(C3=C(c4cc(-c5ccc(OCC)cc5)sc4-c4ccc(OCC)cc4)C(F)(F)C(F)(F)C3(F)F)c(-c3ccc(OCC)cc3)s2)cc1
a: 0.164

q: Data request, read-out Absorbance at PSS, full, for Cc1ccc(-c2sc(-c3cccs3)cc2C2=C(c3cc(-c4cccs4)sc3-c3ccc(C)s3)C(F)(F)C(F)(F)C2(F)F)s1
a: 0.156

q: Data request, read-out Absorbance at PSS, full, for CC(C)(C)c1ccc(-c2cc(C3=C(c4cc(-c5ccc(C(C)(C)C)s5)sc4-c4ccc(O)cc4)C(F)(F)C(F)(F)C3(F)F)c(-c3ccc(O)cc3)s2)s1
a: 0.197

q: Data request, read-out Absorbance at PSS, full, for COCCOc1ccc(-c2sc(-c3ccc(C(C)(C)C)s3)cc2C2=C(c3cc(-c4ccc(C(C)(C)C)s4)sc3-c3ccc(OCCOC)cc3)C(F)(F)C(F)(F)C2(F)F)cc1
a: 0.299

---

Assay: Absorbance at photostationary state (PSS) under simulated sunlight or 365 nm light
Type: physicochemical
Conditions: simulated sunlight (QSUN solar simulator), no UV blocking film; 2.0×10^−5 M in triglyme
So basically, if Absorbance at PSS, full comes in under 0.1 it's class 1, and if it's 0.1 or more it's class 0.

Example entries begin here.
Cc1cc(-c2sc(-c3sc(C)c(C)c3C)cc2C2=C(c3cc(-c4sc(C)c(C)c4C)sc3-c3cc(C)c(C)s3)C(F)(F)C(F)(F)C2(F)F)sc1C
class 0
CC(C)(C)c1ccc(-c2cc(C3=C(c4cc(-c5ccc(C(C)(C)C)cc5)sc4-c4cccs4)C(F)(F)C(F)(F)C3(F)F)c(-c3cccs3)s2)cc1
class 1
Cc1ccc(-c2oc3ccccc3c2C2=C(c3c(-c4ccc(C)s4)oc4ccccc34)C(F)(F)C(F)(F)C2(F)F)s1
class 1
COCCOCCOCCOc1ccc(-c2sc(-c3ccc(C(C)(C)C)s3)cc2C2=C(c3cc(-c4ccc(C(C)(C)C)s4)sc3-c3ccc(OCCOCCOCCOC)cc3)C(F)(F)C(F)(F)C2(F)F)cc1
class 0
c1ccc(-c2nc(-c3cc(-c4cccs4)sc3-c3cccs3)c(-c3cc(-c4cccs4)sc3-c3cccs3)s2)cc1
class 1

In the following, a different molecule is considered.
q: I wonder whether COCCC[Si](CCCOC)(CCCOC)c1ccc(-c2sc(-c3ccc(C(C)(C)C)s3)cc2C2=C(c3cc(-c4ccc(C(C)(C)C)s4)sc3-c3ccc([Si](CCCOC)(CCCOC)CCCOC)s3)C(F)(F)C(F)(F)C2(F)F)s1 has Absorbance at PSS, full below 0.1. Can you tell?
a: class 0

These data points were gathered from patent US10072023B2.
